# system-under-test: Cyclin-dependent kinase 5/CDK5 activator 1 (Homo sapiens) (UniProt Q00535+Q15078)
# Sequence (Q00535 whole entry): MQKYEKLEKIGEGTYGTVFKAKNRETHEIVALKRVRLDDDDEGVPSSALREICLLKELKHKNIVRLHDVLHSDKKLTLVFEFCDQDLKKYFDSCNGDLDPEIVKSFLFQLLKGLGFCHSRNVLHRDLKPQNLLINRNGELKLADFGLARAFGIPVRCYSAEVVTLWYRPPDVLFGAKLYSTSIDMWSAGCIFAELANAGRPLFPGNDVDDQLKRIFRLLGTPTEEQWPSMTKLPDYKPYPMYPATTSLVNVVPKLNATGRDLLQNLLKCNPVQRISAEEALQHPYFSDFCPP
# Sequence (Q15078 99-307 partner limits assumed): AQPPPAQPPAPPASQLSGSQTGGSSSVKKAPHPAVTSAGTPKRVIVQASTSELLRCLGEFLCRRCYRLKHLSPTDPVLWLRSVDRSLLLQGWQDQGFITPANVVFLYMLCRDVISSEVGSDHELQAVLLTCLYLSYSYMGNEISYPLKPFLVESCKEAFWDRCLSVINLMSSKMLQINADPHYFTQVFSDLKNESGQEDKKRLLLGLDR
# test-details: Inhibition of CDK5/p25 (unknown origin) at 1 uM incubated for 30 to 60 mins presence of dithiothreitol by Cheng-Prusoff equation analysis relative to control
# Format: protein-complex assay
# conditions: time 30-60 min
measure: inhibition (%)

Cn1cc(-c2nc(Nc3cccc(S(=O)(=O)C(F)(F)F)c3)ncc2F)cn1 46
Cn1cc(-c2cc(N)nc(Nc3cccc(S(N)(=O)=O)c3)n2)cn1 41

P = Cn1cc(-c2nc(Nc3ccc(C(F)(F)F)c(Cl)c3)ncc2F)cn1
Q = Cn1cc(-c2nc(Nc3ccc(F)c(C(F)(F)F)c3)ncc2F)cn1
R = Cn1cc(-c2nc(Nc3cccc(Cl)c3)ncc2F)cn1
S = Cn1cc(-c2nc(Nc3cccc([N+](=O)[O-])c3)ncc2F)cn1
Problem: Order the records so the highest inhibition appears first and the lowest last. Give the labels in the order requested.
Result: S, R, Q, P
(S: 67%, R: 46%, Q: 16%, P: 3%)

* * *

# system-under-test: CDK9/cyclin T1 (Homo sapiens) (UniProt O60563+P50750)
# test-details: Inhibition of CDK9/cyclin T1 (unknown origin) at 1 uM incubated for 30 to 60 mins presence of dithiothreitol by Cheng-Prusoff equation analysis relative to control
# Format: protein-complex assay
# conditions: time 30-60 min
measure: inhibition (%)

Cn1cc(-c2nc(Nc3ccc(F)c(C(F)(F)F)c3)ncc2F)cn1 51

P = Cn1cc(-c2nc(NC3CCN(S(C)(=O)=O)CC3)ncc2Cl)cn1
Q = Cn1cc(-c2nc(Nc3cccc(Cl)c3)ncc2F)cn1
Problem: Of P and Q , which one carries the higher reported inhibition? Reply briefly: the label of your chosen item.
Result: Q

Every entry's value here was drawn from ChEMBL document CHEMBL5241131.
